Please provide measured FMAT hDLL4 % inhibition for the entries that follow.
target: T1, full length human DLL4 on overexpressing CHO or HEK293 cells (human, UniProt Q9NR61 27-685); test: FMAT, hNotch1/Fc on CHO-hDLL4, periplasmic extract
T1 construct: also called CHO-hDLL4; HEK293-hDII4
T1 sequence (Q9NR61 27-685 limits assumed): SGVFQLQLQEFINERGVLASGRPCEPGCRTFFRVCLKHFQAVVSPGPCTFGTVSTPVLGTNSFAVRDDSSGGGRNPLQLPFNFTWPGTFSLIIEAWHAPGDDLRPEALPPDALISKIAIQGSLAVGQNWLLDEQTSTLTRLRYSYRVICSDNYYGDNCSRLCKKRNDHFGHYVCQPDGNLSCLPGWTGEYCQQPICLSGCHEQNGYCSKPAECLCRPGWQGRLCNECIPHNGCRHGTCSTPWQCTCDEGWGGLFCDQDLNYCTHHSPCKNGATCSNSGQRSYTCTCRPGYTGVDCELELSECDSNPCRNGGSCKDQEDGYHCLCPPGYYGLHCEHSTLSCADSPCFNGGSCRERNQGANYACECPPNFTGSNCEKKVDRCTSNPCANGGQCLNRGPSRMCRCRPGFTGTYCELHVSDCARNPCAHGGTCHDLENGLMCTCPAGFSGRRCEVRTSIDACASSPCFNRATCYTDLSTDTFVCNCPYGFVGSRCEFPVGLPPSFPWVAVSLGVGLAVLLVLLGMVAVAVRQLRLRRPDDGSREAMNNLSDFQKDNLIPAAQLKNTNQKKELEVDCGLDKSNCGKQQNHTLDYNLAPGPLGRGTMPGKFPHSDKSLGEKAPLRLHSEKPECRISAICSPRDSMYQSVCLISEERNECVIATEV
// unit must come after the numeric part

Data point: DLLBII102G04 (VHH, tested as periplasmic extract; also called DLLBII102G4; not shown: C-terminal c-myc tag and His6 tag) VHH: EVQLMESGGGLVQPGGSLRLSCAASGFTFSSYAMSWVRQAPGKGLEWVSRITSGGRTTYRDSVKGRFTISRDNSKNTLYLQMNSLKPEDTALYYCAKARGDIDVYTLSDSRGQGTQVTVSS ; FMAT hDLL4 % inhibition = 86%

Please fill in: FMAT hDLL4 % inhibition reported for DLLBII62C11 (VHH, not shown: C-terminal c-myc tag and His6 tag) VHH: EVQLMESGGGLVQPGGSLRLSCVAAGFTFSNYYMSWVRQAPGKGLEWVSVISPDGSNTYYADTVKGRFTISRGNAKNTLFLQMTGLKSEDAAVYYCARGSGSWGVHGQGTQVTVSS = 74%

Notebook: DLLBII101F01 (VHH, tested as periplasmic extract; also called DLLBII101F1; not shown: C-terminal c-myc tag and His6 tag) VHH: EVQLVESGGGLVQAGGSLRLSCAASGRTFSNYAMGWFRQAPGKEREFVAAISWSGGDTYYADSVKGRFTISRDNAKNTVCLQMNSLKPEDTAVYYCAASFQSGAAPGANFYDYWGQGTQVTVSS , FMAT hDLL4 % inhibition read as 85%

The binder identified as DLLBII47D01 (VHH, tested as periplasmic extract; also called DLLBII47D1; not shown: C-terminal c-myc tag and His6 tag) VHH: EVQLVESGGGLVQPGGSLRLSCAASGFTFDDYAIGWFRQAPGKEREGVSCISSSGSTYYADSVKGRFTISRDNAKNTVYLQMNSLKPEDTAVYYCAIAGASSWCFPPGYWGQGTQVTVSS registered its FMAT hDLL4 % inhibition at 87%

Form field FMAT hDLL4 % inhibition, entry DLLBII80E08 (VHH, tested as periplasmic extract; also called DLLBII80E8; not shown: C-terminal c-myc tag and His6 tag) VHH: EVQLVESGGGLVQAGGSLTLSCAASGGTFTTYAMGWFRQAPGKEREFVAAVSRFGVSWDYADSVKGRFTISRDNTANTLKLRMNSLKADDTAVYYCAAGGRSFLPFVPAYWGQGTQVTVSS : 71%

Numbers sourced from patent US20110195494A1.
